- tested_target: Tre6Pase activity of truncated trehalose synthase (Saccharomyces cerevisiae)
- assay_notes: Tre6Pase assay of truncated trehalose synthase
- condition_info: initial rates, truncated enzyme; read-out: K1/2 of activation of Tre6Pase by phosphate
quantity: EC50

>  <molecule>
O=P(O)(O)O [phosphate, K phosphate]

>  <quantity>
EC50

>  <observed_value>
3 mM

$$$$

* * *

- tested_target: Tre6P synthase activity of intact trehalose synthase (Saccharomyces cerevisiae)
- Construct: Intact trehalose synthase was purified from commercial baker's yeast; made in house; host or cells: commercial baker's yeast (native enzyme purified, not recombinant)
- Sequence (P31688 whole entry): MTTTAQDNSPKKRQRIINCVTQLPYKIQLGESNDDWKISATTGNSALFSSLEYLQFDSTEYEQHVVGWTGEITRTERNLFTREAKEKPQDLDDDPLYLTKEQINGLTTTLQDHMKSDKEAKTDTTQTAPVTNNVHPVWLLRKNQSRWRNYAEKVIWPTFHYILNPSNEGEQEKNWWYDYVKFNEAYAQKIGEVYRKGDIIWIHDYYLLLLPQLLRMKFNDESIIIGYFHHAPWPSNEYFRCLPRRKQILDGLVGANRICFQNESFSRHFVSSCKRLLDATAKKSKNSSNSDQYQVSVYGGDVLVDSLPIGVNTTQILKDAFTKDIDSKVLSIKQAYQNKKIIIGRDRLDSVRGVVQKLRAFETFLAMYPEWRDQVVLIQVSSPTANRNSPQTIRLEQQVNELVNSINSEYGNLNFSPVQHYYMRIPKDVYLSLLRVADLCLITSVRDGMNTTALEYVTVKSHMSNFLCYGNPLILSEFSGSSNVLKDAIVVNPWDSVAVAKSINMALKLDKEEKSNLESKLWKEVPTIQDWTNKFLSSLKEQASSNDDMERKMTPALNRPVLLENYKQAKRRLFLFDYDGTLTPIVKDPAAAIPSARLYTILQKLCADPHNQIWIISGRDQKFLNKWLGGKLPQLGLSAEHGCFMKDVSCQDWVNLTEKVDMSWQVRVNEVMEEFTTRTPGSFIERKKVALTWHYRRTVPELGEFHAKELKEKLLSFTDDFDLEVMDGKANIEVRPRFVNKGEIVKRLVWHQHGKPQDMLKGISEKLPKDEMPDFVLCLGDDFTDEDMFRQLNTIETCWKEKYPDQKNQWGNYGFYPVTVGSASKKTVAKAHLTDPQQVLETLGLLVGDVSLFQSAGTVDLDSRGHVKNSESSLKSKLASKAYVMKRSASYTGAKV
- Sequence (P38427 whole entry, further chain): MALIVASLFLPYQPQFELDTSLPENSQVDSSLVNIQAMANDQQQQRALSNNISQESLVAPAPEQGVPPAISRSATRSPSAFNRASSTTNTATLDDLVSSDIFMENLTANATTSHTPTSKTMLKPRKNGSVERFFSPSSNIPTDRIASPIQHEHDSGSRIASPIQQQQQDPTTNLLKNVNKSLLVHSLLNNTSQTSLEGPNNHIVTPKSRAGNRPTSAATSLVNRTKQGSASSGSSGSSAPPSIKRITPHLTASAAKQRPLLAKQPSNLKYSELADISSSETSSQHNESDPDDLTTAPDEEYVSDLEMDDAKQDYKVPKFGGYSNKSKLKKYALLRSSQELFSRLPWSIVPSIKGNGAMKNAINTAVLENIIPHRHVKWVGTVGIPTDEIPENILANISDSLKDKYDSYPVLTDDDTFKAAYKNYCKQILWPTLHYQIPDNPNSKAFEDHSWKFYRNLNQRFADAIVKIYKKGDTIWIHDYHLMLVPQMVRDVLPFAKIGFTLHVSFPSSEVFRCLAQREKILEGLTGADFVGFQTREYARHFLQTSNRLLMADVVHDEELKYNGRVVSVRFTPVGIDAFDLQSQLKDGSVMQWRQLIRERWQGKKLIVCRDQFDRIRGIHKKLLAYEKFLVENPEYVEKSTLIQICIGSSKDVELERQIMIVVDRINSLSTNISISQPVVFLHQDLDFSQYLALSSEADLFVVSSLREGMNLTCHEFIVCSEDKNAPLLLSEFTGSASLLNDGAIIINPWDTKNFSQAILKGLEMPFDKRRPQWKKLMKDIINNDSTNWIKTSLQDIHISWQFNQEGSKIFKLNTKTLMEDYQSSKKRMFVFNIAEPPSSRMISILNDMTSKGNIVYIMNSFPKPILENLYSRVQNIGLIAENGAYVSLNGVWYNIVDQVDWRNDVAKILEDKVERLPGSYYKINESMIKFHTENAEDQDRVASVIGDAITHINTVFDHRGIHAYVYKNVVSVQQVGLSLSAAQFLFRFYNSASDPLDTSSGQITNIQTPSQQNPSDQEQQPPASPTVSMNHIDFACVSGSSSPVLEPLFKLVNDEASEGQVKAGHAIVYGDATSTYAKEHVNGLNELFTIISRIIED
- Sequence (Q00764 whole entry): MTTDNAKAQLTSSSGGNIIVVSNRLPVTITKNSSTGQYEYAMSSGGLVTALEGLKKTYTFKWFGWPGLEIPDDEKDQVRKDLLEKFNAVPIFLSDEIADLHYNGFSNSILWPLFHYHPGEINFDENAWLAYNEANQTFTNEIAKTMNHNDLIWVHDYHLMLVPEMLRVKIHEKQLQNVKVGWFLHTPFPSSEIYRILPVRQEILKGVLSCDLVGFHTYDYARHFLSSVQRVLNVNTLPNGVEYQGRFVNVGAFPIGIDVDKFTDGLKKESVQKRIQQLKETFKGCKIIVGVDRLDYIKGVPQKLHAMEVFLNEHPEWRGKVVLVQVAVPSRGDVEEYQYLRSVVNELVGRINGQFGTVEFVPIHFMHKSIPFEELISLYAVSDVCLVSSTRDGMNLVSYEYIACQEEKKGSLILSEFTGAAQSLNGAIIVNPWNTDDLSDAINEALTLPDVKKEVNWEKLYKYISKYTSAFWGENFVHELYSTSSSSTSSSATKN
- assay_notes: Tre6P synthase assay of intact trehalose synthase
- Type: biochemical, baker's yeast
- condition_info: no added phosphate; read-out: K1/2 of activation by F6P
pEC50: −log10 of the molar value.
quantity: pEC50

>  <molecule>
O=C(CO)[C@@H](O)[C@H](O)[C@H](O)COP(=O)(O)O [Transformant F6P, Fructose 6-phosphate]

>  <tested_target>
Tre6P synthase activity of intact trehalose synthase (Saccharomyces cerevisiae)

>  <observed_value>
4.22

$$$$
